Tested on: A549-ACE2 infected with SARS-CoV-2
experimental details: cell count relative to DMSO; higher = less toxic
condition parameters: 3 µM; 24 h
value type: cell count (%)
One number for each entry, in %.

Please review the entries below; each comes with its answer.
INSERT INTO results (mol, target_under_test, unit_abbreviation, value_reported) VALUES
  ('NC(=O)c1noc([C@H](CCCC2CCCCC2)CC(=O)NO)n1', 'A549-ACE2 infected with SARS-CoV-2', '%', 100),
  ('COc1ccc2nc3c(c(N)c2c1)CCCC3', 'A549-ACE2 infected with SARS-CoV-2', '%', 109),
  ('COc1ccc(NC(=O)c2ccc(-c3ccc(-c4noc(C)n4)cc3C)cc2)cc1OCCN(C)C', 'A549-ACE2 infected with SARS-CoV-2', '%', 126),
  ('CN(C(=O)Cc1ccc(Cl)c(Cl)c1)[C@H](CN1CCCC1)c1ccccc1', 'A549-ACE2 infected with SARS-CoV-2', '%', 118);

API: the following record is the query input.
QUERY: Suppose we examine the compound Cc1ccc(-n2nc(C(C)(C)C)cc2NC(=O)Nc2ccc(OCCN3CCOCC3)c3ccccc23)cc1 ; what cell count value has been reported?
RESULT: 105

====

Tested on: A549-ACE2
experimental details: drug-induced phospholipidosis relative to tamoxifen; higher = more phospholipidosis
condition parameters: 3.33333 µM; 24 h
Field: drug-induced phospholipidosis. Provide a value for each of the compounds that follow.
One number for each entry, in %.

Please review the entries below; each comes with its answer.
INSERT INTO results (mol, value_reported) VALUES
  ('CC(C)n1nc(C#Cc2ccccc2)c2c(N)ncnc21', 12.6),
  ('Cc1ccc(-n2nc(C(C)(C)C)cc2NC(=O)Nc2ccc(OCCN3CCOCC3)c3ccccc23)cc1', -2.5),
  ('CC(C)(C)c1ccc(C(=O)CCCN2CCC(OC(c3ccccc3)c3ccccc3)CC2)cc1', 46.9),
  ('COc1cc(-n2cnc3cc(-c4ccc(Cl)cc4)sc3c2=O)ccc1OCCN1CCCC1', 19.1);

For every listed record, write down its drug-induced phospholipidosis.
1. NC1(Cc2ccc(Cl)cc2)CCN(c2ncnc3[nH]ccc23)CC1
2. CCN(CC)CCO[C@H]1CC[C@@]2(C)C(=CC[C@@H]3[C@@H]2CC[C@]2(C)C(=O)CC[C@@H]32)C1
3. COc1ccc2nc3c(c(N)c2c1)CCCC3

RESULT:
[24.4, 112, 0.16]

====

Assignment: determine reported cell viability for the given compounds.
System: Caco-2
experimental details: cell viability relative to DMSO; higher = less toxic
condition parameters: 72 h; 1000 nM
A bare number is not enough; add the unit after it.

INSERT INTO results (compound, value_reported) VALUES
  ('NC1(c2ccc(-c3nc4ccn5c(=O)[nH]nc5c4cc3-c3ccccc3)cc2)CCC1 [MK-2206]', '75%'),
  ('CC(=O)[O-].CC(=O)[O-].N.NC1CCCCC1.[Cl-].[Cl-].[Pt+4] [satraplatin]', '93.3%'),
  ('Cc1cc(-c2cc(O)ccc2Cl)cc2nnc(Nc3ccc(OCCN4CCCC4)cc3)nc12', '82.5%'),
  ('C[C@]12CC[C@@H]3c4ccc(O)cc4CC[C@H]3[C@@H]1CC[C@@H]2OC(=O)CCC1CCCC1 [estradiol-cypionate]', '97.2%'),
  ('CCS(=O)(=O)N1CCN(c2ccc(Nc3ncc(C(N)=O)c(NC4CC4)n3)cc2)CC1', '86.8%'),
  ('COc1ccc(NC(=O)c2ccc(-c3ccc(-c4noc(C)n4)cc3C)cc2)cc1OCCN(C)C', '92.4%');

QUERY: Enter reported cell viability observed with Caco-2 for CCC(C)CCCC(=O)N[C@@H](CCN)C(=O)N[C@H](C(=O)N[C@@H](CCN)C(=O)N[C@H]1CCNC(=O)[C@H]([C@@H](C)O)NC(=O)[C@H](CCN)NC(=O)[C@H](CCN)NC(=O)[C@H](CC(C)C)NC(=O)[C@@H](CC(C)C)NC(=O)[C@H](CCN)NC1=O)[C@@H](C)O (some centres not stated) [colistin]
RESULT: 104%
